SYSTEM_UNDER_TEST: Epidermal growth factor receptor (Homo sapiens, UniProt P00533)
EXPERIMENTAL_PROTOCOL: DRUGMATRIX: Protein Tyrosine Kinase, EGF Receptor enzyme inhibition (substrate: Poly(Glu:Tyr))
Assay type: cell-based, Insect cells
CONDITION_LABEL: insect cells; Not Active = under 50% inhibition at 10 µM
MEASUREMENT_KIND: IC50

* THIMEROSAL | Not Active
* STANNOUS FLUORIDE | Not Active
* COBALT(II) ACETYLACETONATE | Not Active
* INSULIN HUMAN | Not Active
* POLYVINYL ALCOHOL | Not Active

###

SYSTEM_UNDER_TEST: 5-hydroxytryptamine receptor 4 (Cavia porcellus, UniProt O70528); further: in other assays of this panel Not Active means under 50% inhibition at 10 µM
Sequence (O70528 whole entry): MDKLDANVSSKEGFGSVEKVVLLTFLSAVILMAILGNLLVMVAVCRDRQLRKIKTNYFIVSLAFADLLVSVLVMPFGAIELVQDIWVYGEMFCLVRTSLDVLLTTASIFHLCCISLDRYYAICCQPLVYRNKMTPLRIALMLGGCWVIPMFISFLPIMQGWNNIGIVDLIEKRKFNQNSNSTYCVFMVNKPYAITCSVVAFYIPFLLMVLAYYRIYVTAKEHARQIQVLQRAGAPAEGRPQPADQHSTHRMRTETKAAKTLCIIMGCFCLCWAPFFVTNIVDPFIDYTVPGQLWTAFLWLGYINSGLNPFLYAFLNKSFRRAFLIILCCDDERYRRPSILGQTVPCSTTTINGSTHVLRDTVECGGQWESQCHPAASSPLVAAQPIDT
Format: cell membranes, Dunkin-Hartley, Striatum, Membrane
CONDITION_LABEL: read-out: Ki
MEASUREMENT_KIND: Ki (nM)

• CN1C[C@H](C(=O)N[C@]2(C)O[C@@]3(O)[C@@H]4CCCN4C(=O)[C@H](Cc4ccccc4)N3C2=O)C[C@@H]2c3cccc4[nH]cc(c34)C[C@H]21 [DIHYDROERGOTAMINE] = 157
• C#C[C@]1(O)CC[C@H]2[C@@H]3CCc4cc(O)ccc4[C@H]3CC[C@@]21C [ETHINYL ESTRADIOL] = 1330

###

SYSTEM_UNDER_TEST: Histamine H2 receptor (Homo sapiens, UniProt P25021); further: in other assays of this panel Not Active means under 50% inhibition at 10 µM
Sequence (P25021 whole entry): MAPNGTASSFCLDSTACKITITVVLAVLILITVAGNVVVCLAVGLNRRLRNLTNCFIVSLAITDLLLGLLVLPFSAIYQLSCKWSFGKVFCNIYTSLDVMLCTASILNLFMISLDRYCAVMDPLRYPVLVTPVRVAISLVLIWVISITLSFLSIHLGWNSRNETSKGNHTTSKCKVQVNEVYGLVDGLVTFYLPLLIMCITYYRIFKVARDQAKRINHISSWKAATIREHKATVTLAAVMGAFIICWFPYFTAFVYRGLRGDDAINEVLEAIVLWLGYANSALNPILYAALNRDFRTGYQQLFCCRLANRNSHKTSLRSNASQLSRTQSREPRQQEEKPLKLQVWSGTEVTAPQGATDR
Type: cell membranes, CHO-K1, Membrane
CONDITION_LABEL: cho-k1
MEASUREMENT_KIND: IC50

• CC[C@H]1OC(=O)[C@H](C)[C@@H](O[C@H]2C[C@@](C)(OC)[C@@H](O)[C@H](C)O2)[C@H](C)[C@@H](O[C@@H]2O[C@H](C)C[C@H](N(C)C)[C@H]2O)[C@](C)(OC)C[C@@H](C)C(=O)[C@H](C)[C@@H](O)[C@]1(C)O = Not Active
• O=c1n(CCCN2CCN(c3cccc(Cl)c3)CC2)nc2ccccn12 = Not Active
• CC(=O)OCC(CCn1cnc2cnc(N)nc21)COC(C)=O = Not Active
• O=c1cc(-c2ccccc2)oc2ccc3ccccc3c12 = Not Active
• CCCc1nn(C)c2c(=O)[nH]c(-c3cc(S(=O)(=O)N4CCN(C)CC4)ccc3OCC)nc12 = Not Active
• CCCCCC[C@H]1C(=O)O[C@H](C)[C@H](NC(=O)c2cccc(NC=O)c2O)C(=O)O[C@@H](C)[C@@H]1OC(=O)CC(C)C [ANTIMYCIN A] = Not Active
• O=C(O)c1cccnc1 = Not Active
• CCN[C@@H](C)Cc1cccc(C(F)(F)F)c1 = Not Active
• CC(C)(Oc1ccc(C2CC2(Cl)Cl)cc1)C(=O)O (configuration not stated) [CIPROFIBRATE] = Not Active
• C[C@]12CC[C@H]3[C@@H](CCC4=CC(=O)CC[C@@]43C)[C@@H]1CC[C@@H]2O = Not Active
• CCOC(=O)[C@H](CCc1ccccc1)N[C@@H](C)C(=O)N1CCC[C@H]1C(=O)O = Not Active
• NC[C@H]1O[C@H](O[C@H]2[C@H](O)[C@@H](O[C@H]3O[C@H](CO)[C@@H](O)[C@H](N)[C@H]3O)[C@H](N)C[C@@H]2N)[C@H](N)C[C@@H]1O = Not Active
• Cc1c(F)c(N2CCNC(C)C2)cc2c1c(=O)c(C(=O)O)cn2C1CC1 (configuration not stated) = Not Active
• CC(C)(C)c1ccc(S(=O)(=O)/C=C/C#N)cc1 = Not Active
• Oc1ccccc1O = Not Active
• CCOC(=O)n1ccn(C)c1=S = Not Active
• O=C(/C=C/c1ccc(O)c(O)c1)OCCc1ccccc1 = Not Active

###

SYSTEM_UNDER_TEST: UniProt:P05177
Sequence (P05177 whole entry): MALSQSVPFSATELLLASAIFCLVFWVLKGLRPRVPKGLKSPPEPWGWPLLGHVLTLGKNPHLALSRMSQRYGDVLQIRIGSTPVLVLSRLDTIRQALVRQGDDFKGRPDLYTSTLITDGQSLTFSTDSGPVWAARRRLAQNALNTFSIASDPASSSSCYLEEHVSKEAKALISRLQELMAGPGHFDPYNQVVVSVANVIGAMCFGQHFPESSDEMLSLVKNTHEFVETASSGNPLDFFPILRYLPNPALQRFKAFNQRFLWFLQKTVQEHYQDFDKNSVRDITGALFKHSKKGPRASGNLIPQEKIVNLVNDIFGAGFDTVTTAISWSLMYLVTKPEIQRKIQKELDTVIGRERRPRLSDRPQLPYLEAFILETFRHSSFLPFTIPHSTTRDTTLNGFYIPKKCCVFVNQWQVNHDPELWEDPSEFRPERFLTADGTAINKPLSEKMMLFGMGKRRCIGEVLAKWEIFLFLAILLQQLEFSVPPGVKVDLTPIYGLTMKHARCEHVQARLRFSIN
CONDITION_LABEL: bti-tn-5b1-4
MEASUREMENT_KIND: Ki

• CC(C)(Oc1ccc(C2CC2(Cl)Cl)cc1)C(=O)O (centres undefined) [CIPROFIBRATE] = Not Active
• Cc1cn([C@H]2C[C@H](N=[N+]=[N-])[C@@H](CO)O2)c(=O)[nH]c1=O [ZIDOVUDINE] = Not Active
• CN(C(=O)CCCOc1ccc2[nH]c(=O)ccc2c1)C1CCCCC1 [CILOSTAMIDE] = Not Active
• CN1C2CCCC1CC(NC(=O)c1nn(C)c3ccccc13)C2 (centres undefined) [GRANISETRON] = Not Active
• CC[C@H](C)C(=O)O[C@H]1C[C@H](O)C=C2C=C[C@H](C)[C@H](CC[C@@H](O)C[C@@H](O)CC(=O)O)[C@H]21 [PRAVASTATIN] = Not Active
• [N-]=[N+]=CC(=O)OC[C@H](N)C(=O)O [AZASERINE] = Not Active
• CCOC(=O)[C@H](CCc1ccccc1)N[C@@H](C)C(=O)N1Cc2ccccc2C[C@H]1C(=O)O = Not Active
• C=C1/C(=C\C=C2/CCC[C@]3(C)[C@@H]([C@H](C)CCCC(C)C)CC[C@@H]23)C[C@@H](O)C[C@@H]1O [ALFACALCIDOL] = Not Active
• C[C@H]([C@](O)(Cn1cncn1)c1ccc(F)cc1F)S(C)(=O)=O [GENACONAZOLE] = Not Active
• CC(=O)O[C@H]1C[C@@H]2CC[C@@H]3[C@H](CC[C@@]4(C)[C@H]3C[C@H]([N+]3(C)CCCCC3)[C@@H]4OC(C)=O)[C@@]2(C)C[C@@H]1N1CCCCC1.[Br-] [VECURONIUM BROMIDE] = Not Active
• CCC(=O)O[C@H]1[C@H](O[C@@H]2[C@@H](C)[C@H](O[C@H]3C[C@@](C)(OC)[C@@H](O)[C@H](C)O3)[C@@H](C)C(=O)O[C@H](CC)[C@@](C)(O)[C@H](O)[C@@H](C)C(=O)[C@H](C)C[C@@]2(C)O)O[C@H](C)C[C@@H]1N(C)C [ERYTHROMYCIN PROPIONATE] = Not Active
• CS(=O)(=O)OCCCCOS(C)(=O)=O [BUSULFAN] = Not Active
• COc1cc(C(=O)NS(=O)(=O)c2ccccc2C)ccc1Cc1cn(C)c2ccc(NC(=O)OC3CCCC3)cc12 [ZAFIRLUKAST] = Not Active
• C[C@]12C/C(=C/O)C(=O)C[C@@H]1CC[C@@H]1[C@@H]2CC[C@@]2(C)[C@H]1CC[C@]2(C)O [OXYMETHOLONE] = Not Active
• Cc1c(N(C)CS(=O)(=O)[O-])c(=O)n(-c2ccccc2)n1C.[Na+] [DIPYRONE SODIUM] = Not Active
• Nc1nc(N)nc(NC2CC2)n1 [CYROMAZINE] = Not Active
• C=C(CC)C(=O)c1ccc(OCC(=O)O)c(Cl)c1Cl [ETHACRYNIC ACID] = Not Active
• COc1ccc(Cc2nccc3cc(OC)c(OC)cc23)cc1OC [PAPAVERINE] = Not Active
• CO[C@H]1C[C@@H]2CC[C@@H](C)[C@@](O)(O2)C(=O)C(=O)N2CCCC[C@H]2C(=O)O[C@H]([C@H](C)C[C@@H]2CC[C@@H](O)[C@H](OC)C2)CC(=O)[C@H](C)/C=C(\C)[C@@H](O)[C@@H](OC)C(=O)[C@H](C)C[C@H](C)/C=C/C=C/C=C/1C [SIROLIMUS] = Not Active
• COc1ncnc(NS(=O)(=O)c2ccc(N)cc2)c1OC [SULFADOXINE] = Not Active
• COc1ccccc1OCC(O)COC(N)=O (centres undefined) [METHOCARBAMOL] = Not Active
• Cc1cccc(Nc2ccccc2C(=O)O)c1C [MEFENAMIC ACID] = Not Active
• CC[C@H](C)C(=O)O[C@H]1C[C@@H](C)C=C2C=C[C@H](C)[C@H](CC[C@@H]3C[C@@H](O)CC(=O)O3)[C@H]21 [LOVASTATIN] = Not Active
• COc1cc(N)nc2[nH]c(-c3ccc(F)cc3)c(-c3ccncc3)c12 = Not Active
• CO[C@H]1[C@@H](O)[C@H](N)[C@@H](O[C@H]2O[C@H]([C@H](C)N)CC[C@H]2N)[C@H](O)[C@@H]1N(C)C(=O)CN [ASTROMICIN] = Not Active
• CN(CCOc1ccc(CC2SC(=O)NC2=O)cc1)c1ccccn1 (centres undefined) [ROSIGLITAZONE] = Not Active
• CCCCC1C(=O)N(c2ccccc2)N(c2ccccc2)C1=O [PHENYLBUTAZONE] = Not Active
• CC(=O)Nc1nnc(S(N)(=O)=O)s1 [ACETAZOLAMIDE] = Not Active
• C#C[C@]1(O)CC[C@H]2[C@@H]3CCc4cc(O)ccc4[C@H]3CC[C@@]21C [ETHINYL ESTRADIOL] = Not Active
